B1: PLK2 (parent)
chain: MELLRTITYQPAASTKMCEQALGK

Variants of: B1
assay-comment: protein stability index of a GFP-peptide fusion (GPS, HEK-293T) (PSI 1-6); higher = more stable;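 further: lentivirally expressed fusions sorted by FACS into six bins by GFP to DsRed ratio, PSI derived from sequencing read proportions per bin multiplied by bin number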
run-conditions: c terminus: a fixed tail appended
measured-metric: protein stability index
// return just the number, without any unit appended

>  <residues>
MELLRTITYQPAASTKMCEQCLGK [A21C]

>  <measured-metric>
protein stability index

>  <val>
2.68

$$$$

IN: I would be grateful if you could share the reported protein stability index for MELLRTITYQPAASTKMKEQALGK [C18K] .
OUT: 1.61

IN: Look up protein stability index: MELLRTITYQPEASTKMCEQALGK [A12E]
OUT: 2.58

IN: Look up protein stability index: MELLRTITYTPAASTKMCEQALGK [Q10T]
OUT: 2.12

IN: Field request: protein stability index | item: MELLRTITYQPAASTPMCEQALGK [K16P]
OUT: 2.02

IN: I have this variant here, MELLRTITYQPAASTKMCEQAYGK [L22Y] , and I need its recorded protein stability index.
OUT: 2.79

IN: Please look up its protein stability index: MELLRTITYQPAISTKMCEQALGK [A13I]
OUT: 1.82

IN: May I ask what protein stability index has been recorded for MELLETITYQPAASTKMCEQALGK [R5E] ?
OUT: 3.55

IN: protein stability index for MELLDTITYQPAASTKMCEQALGK [R5D] ?
OUT: 3.95

IN: # lookup: protein stability index of MELLRTIKYQPAASTKMCEQALGK [T8K]
OUT: 2.25
